Each item that follows carries a reported % Inhibition 30-60.
- Tested on: rat perifused pancreatic islets
- ASSAY DETAILS: KATP opening effects through insulin secretion in rat perifused pancreatic islets
- Format: cell-based
- STATED CONDITIONS: insulin secretion at 11 mM glucose, 30-60 minutes
- Protocol: The animals were maintained on a 12 h light-dark cycle (lights on 06.00-18.00 h) with free access to standard rodent diet (B&K Universal Ltd standard rat and mouse diet (BK 001P), Beekay Feeds, B&K Universal Ltd, Hull, East Riding of Yorkshire) and tap water. […] Data were initially expressed as a simple mean of the three experiments for insulin secretion (pg/islet/min) and multiple t-tests (against the corresponding vehicle time period) used to determine potential significant effects of treatments. […]
Answer in %, number only, no unit symbol.

The following molecules have reported results that may help.
MOLECULE	NUMBER
CN/C(=N\S(=O)(=O)c1ccc(C(F)(F)F)cc1)N1CC(c2cccnc2)C(c2ccc(Cl)cc2)=N1 (stereo not drawn)	31
CON/C(=N\S(=O)(=O)c1ccc(Cl)cc1)N1C[C@H](c2cccc(F)c2)C(c2ccc(Cl)cc2)=N1 (stereo in doubt)	95
CN(C)CCNC(=NS(=O)(=O)N1CCCCC1)N1CC(c2ccccc2)C(c2ccc(Cl)cc2)=N1 (stereo not drawn)	64

QUERY: Quick one: % Inhibition 30-60 for Cc1c(C(=O)NN2CCCCC2)nn(-c2ccc(Cl)cc2Cl)c1-c1ccc(Cl)cc1 [Rimonabant, reference compound] ?
RESULT: 18

QUERY: What about this molecule? CCc1c(C(=O)NN2CCCCC2)nc(-c2ccccc2Cl)n1-c1ccc(Cl)cc1 [reference compound]
RESULT: 45

QUERY: Next up: CSc1c(C(=O)NN2CCCCC2)nc(-c2ccccc2Cl)n1-c1ccc(Cl)cc1
RESULT: 36

QUERY: Now give it for CNC(=NS(=O)(=O)N1CCCCC1)C1=NN(c2ccc(Cl)cc2)C(c2ccccc2)C1 (stereo not drawn) too.
RESULT: 47

QUERY: Ok, now CN/C(=N\S(=O)(=O)N(C)C)N1CC(c2cccc(F)c2)C(c2ccc(Cl)cc2)=N1 (stereo not drawn)
RESULT: 77

QUERY: Same thing, different molecule: CN/C(=N\S(=O)(=O)N1CCOCC1)N1CC(c2ccccc2)C(c2ccc(Cl)cc2)=N1 (stereo not drawn)
RESULT: 91

The reported measurements were obtained from patent US7763607B2.
